A collection of compounds and their measured IC50
Molecular target: AKT1 (Homo sapiens)
Sequence (P31749 whole entry): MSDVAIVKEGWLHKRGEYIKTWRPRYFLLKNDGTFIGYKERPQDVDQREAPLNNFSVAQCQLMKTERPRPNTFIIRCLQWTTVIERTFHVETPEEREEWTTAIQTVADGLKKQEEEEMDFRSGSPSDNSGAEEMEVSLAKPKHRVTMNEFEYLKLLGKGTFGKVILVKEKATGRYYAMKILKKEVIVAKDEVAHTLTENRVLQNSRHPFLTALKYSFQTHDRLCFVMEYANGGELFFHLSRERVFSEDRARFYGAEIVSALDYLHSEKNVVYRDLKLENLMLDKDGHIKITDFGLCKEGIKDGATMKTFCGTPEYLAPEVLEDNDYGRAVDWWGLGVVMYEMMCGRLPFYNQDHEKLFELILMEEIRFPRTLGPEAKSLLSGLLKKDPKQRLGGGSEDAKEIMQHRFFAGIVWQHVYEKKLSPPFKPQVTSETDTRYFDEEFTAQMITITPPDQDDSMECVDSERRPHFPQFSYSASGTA
Experiment: AKT Kinase Assay (IMAP fluorescent polarisation) vs AKT1
Conditions: activated AKT1, FAM Crosstide substrate
Structures can show the parent of a compound that is named as a salt.

Worked set:
CCNc1nc2oc(-c3ccc(C4(N)CCC4)cc3)c(-c3ccccc3)c2c(=O)n1C [Example 88, HCl] | 0.1 to 1 µM
CCn1cnc2oc(-c3ccc(C4(N)CCC4)cc3)c(-c3ccccc3)c2c1=O [Example 104, HCl] | 1 to 10 µM
NC(=O)c1ccc2c(-c3ccccc3)c(-c3ccc(C4(N)CCC4)cc3)oc2c1 [Example 5] | 1 to 10 µM

Note down IC50 recorded for NC1CCN(c2ncc3c(-c4ccccc4)c(-c4ccc(C5(N)CCC5)cc4)oc3n2)CC1 [Example 50]
1 to 10 µM

Note down IC50 recorded for CC(=O)Nc1cccc(-c2cnc3oc(-c4ccc(C5(N)CCC5)cc4)c(-c4ccccc4)c3n2)c1 [Example 151, HCl]
1 to 10 µM

Note down IC50 recorded for NC1(c2ccc(-c3oc4ncc(NCCO)nc4c3-c3ccccc3)cc2)CCC1 [Example 148]
0.1 to 1 µM

Note down IC50 recorded for NC1(c2ccc(-c3oc4nc(N5CCOCC5)ncc4c3-c3ccccc3)cc2)CCC1 [Example 52]
1 to 10 µM

Note down IC50 recorded for COCCn1cnc2oc(-c3ccc(C4(N)CCC4)cc3)c(-c3ccccc3)c2c1=O [Example 105, HCl]
1 to 10 µM

Note down IC50 recorded for NC1(c2ccc(-c3oc4ncc(-c5cccnc5)nc4c3-c3ccccc3)cc2)CCC1 [Example 150]
1 to 10 µM

Note down IC50 recorded for NC1(c2ccc(-c3oc4ncc(CO)nc4c3-c3ccccc3)cc2)CCC1 [Example 145]
1 to 10 µM

Note down IC50 recorded for COCCNc1nc(OC)c2c(-c3ccccc3)c(-c3ccc(C4(N)CCC4)cc3)oc2n1 [Example 42]
0.1 to 1 µM

Note down IC50 recorded for NC1(c2ccc(-c3oc4nccnc4c3-c3ccccc3)cc2)CCC1 [Example 10]
1 to 10 µM
